Assay: cytotoxicity toward DRD oncogenic fibroblasts, dose response, cell-based, non-viral oncogenic, luminescence (AID 1934)
Assay type: functional
Conditions: Homo sapiens
Activity calls are given as the source filed them.
Catalogue of EC50 readings, one per entry.
assay readout: EC50

1) CCCCCCCN(C(=O)CCl)c1cccc(C)c1 = 2.48 µM (inconclusive)
2) CCCCOc1ccc(NC(=O)C(=O)NCCC2=CCCCC2)cc1 = 142 µM (active)
3) Cc1cccc(N(Cc2ccccc2)C(=O)CCl)c1 = 2.71 µM (inconclusive)
4) C/C=C(\C)C(=O)N[C@@H](c1ccccc1)[C@@H](O)C(=O)O[C@H]1C[C@@]2(O)[C@@H](OC(=O)c3ccccc3)C3[C@](C)(C(=O)[C@H](OC(C)=O)C(=C1C)C2(C)C)[C@H](O)C[C@H]1OC[C@@]31OC(C)=O (some centres undefined) = < 0.12 µM (active)

====

Target: Troponin, cardiac muscle (Homo sapiens, UniProt P19429+P45379+P63316)
Assay: Fluorescence-based biochemical high throughput dose response assay for activators of the calcium sensitivity of cardiac Regulated Thin Filaments (RTF). [Related pubchem assays (depositor defined):AID493008, AID493018, AID504382, AID504383]
Type: protein-complex assay
The source made the active and inactive calls.
Outcome codes: active, inactive

1. C=CCn1c(=O)[nH]c2nc3cc(/N=C/N(C)C)c(C)cc3nc2c1=O = active
2. S=C(Nc1cc(Cl)ccc1Oc1ccccc1)N1CCN(c2ccccn2)CC1 = inactive
3. CCn1nc(-c2ccccc2)c2nc3ccccc3nc21 = active
4. COc1ccccc1/C=C/C=C1\Oc2c(ccc(O)c2CN2CCN(CCO)CC2)C1=O = active
5. COc1ccc(OC)c(N2C(=O)/C(=C/NCCN3CCNCC3)C(=O)NC2=S)c1 = inactive

====

Consider the following molecules and their measured IC50 readings.
Target: Induced myeloid leukemia cell differentiation protein Mcl-1 (Homo sapiens, UniProt Q07820)
Sequence (Q07820 whole entry): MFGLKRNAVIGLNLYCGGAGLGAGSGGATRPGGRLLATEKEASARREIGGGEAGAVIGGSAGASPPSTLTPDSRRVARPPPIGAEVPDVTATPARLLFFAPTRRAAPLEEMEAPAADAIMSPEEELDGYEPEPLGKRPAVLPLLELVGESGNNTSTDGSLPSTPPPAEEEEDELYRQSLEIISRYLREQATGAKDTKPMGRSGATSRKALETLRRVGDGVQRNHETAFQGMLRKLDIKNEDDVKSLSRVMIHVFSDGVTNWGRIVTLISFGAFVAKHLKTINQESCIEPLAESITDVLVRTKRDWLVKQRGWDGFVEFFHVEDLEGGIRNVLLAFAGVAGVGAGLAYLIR
Type: functional
The source made the active and inactive calls.
assay readout: IC50

1) CCC(C)NCCCOc1c(C)cc(C)cc1Br (stereo not given) = 6.63 µM (not active)
2) O=C(c1ccc2nc(-c3ccco3)c(-c3ccco3)nc2c1)N1CCN(c2ncccn2)CC1 = 7.82 µM (active)
3) O=c1ccc2[n+]([O-])c3ccc(O)cc3oc-2c1 = 10.1 µM (not active)
4) COc1ccc(N2Cc3cccc(C(=O)N4CCN(C(=O)c5ccco5)CC4)c3C2=O)cc1 = 3.1 µM (active)
5) O=C1Oc2ccccc2C(=O)/C1=C/c1c[nH]c2ccccc12 = 5.56 µM (active)

====

Target: High affinity choline transporter 1 (Homo sapiens)
Sequence (Q9GZV3 whole entry): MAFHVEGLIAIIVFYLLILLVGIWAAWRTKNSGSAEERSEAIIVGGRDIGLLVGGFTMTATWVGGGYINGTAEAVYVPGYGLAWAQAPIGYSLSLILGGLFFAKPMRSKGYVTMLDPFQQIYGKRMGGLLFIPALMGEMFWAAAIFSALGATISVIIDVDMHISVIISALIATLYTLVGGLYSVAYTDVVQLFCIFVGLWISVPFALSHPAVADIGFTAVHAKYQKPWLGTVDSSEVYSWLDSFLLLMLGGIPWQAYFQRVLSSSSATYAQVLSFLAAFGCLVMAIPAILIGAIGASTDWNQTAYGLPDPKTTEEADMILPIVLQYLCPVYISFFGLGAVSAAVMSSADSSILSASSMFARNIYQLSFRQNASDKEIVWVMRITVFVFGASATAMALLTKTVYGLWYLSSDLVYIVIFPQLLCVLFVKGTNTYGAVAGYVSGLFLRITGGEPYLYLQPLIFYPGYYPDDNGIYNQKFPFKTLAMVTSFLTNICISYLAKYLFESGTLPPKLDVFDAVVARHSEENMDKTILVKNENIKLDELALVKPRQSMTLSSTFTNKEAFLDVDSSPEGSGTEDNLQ
Experiment: CHT inhibitors, dose response, cell-based, 5-point CRC, membrane potential dye (AID 504840)
Format: functional
Activity calls are given as the source filed them.
assay readout: IC50

1. CCCOc1ccc(Br)cc1CSC(=N)N = 15.9 µM (active)
2. Fc1ccccc1N=C(S)NNc1ncc(C(F)(F)F)cc1Cl = 10 µM (active)
3. O=C1Nc2cc(C(=O)NCCCN3CCCC3)ccc2S/C1=C\c1ccccc1 = 14.5 µM (active)
4. CCc1c(C)nc(N)nc1N1N=C1SCCOc1ccccc1 = 9.19 µM (active)
5. CCC(C)c1ccc(NC(S)=NCc2ccccn2)cc1 (stereo not drawn) = 13.2 µM (active)
6. Cc1cc([N+](=O)[O-])c(NCCCCCCO)c([N+](=O)[O-])c1 = 12.6 µM (active)
7. O=C(Nc1cccc(CNCCc2c[nH]c3ccccc23)c1)c1ccccc1Cl = 17.4 µM (active)
8. CC1=CC(=O)C(C(C)C)=C/C1=N/OS(=O)(=O)c1ccccc1 = 12 µM (active)

====

Tested on: Streptococcus
Experiment: Group A Streptococcus viability loss, dose response, counter-screen for streptokinase expression inhibitor project, luminescence, BacTiterGlo (AID 1915);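 also: potency for reduction of bacterial viability or growth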
Assay type: functional, organism-based
Active and inactive are the calls of the source.
assay readout: EC50

1. CCCC(=O)NC(c1ccc(C)cc1)c1ccc2cccnc2c1O (stereo not given) = 14.7 µM (active)
2. Oc1nc(Nc2ccccc2)sc1/C=C1\C=Nc2ccccc21 = 26.6 µM (active)
3. Cc1cc2oc(=O)cc(CNc3ccccc3F)c2cc1O = > 150 µM (not active)
4. Cc1ccc(NS(=O)(=O)c2ccc(Cl)c(NC(=S)NC(=O)C3CCCCC3)c2)cc1Cl = 4.65 µM (active)
5. CCCC1CC(C(=O)NC(C(C)Cl)C2OC(SC)C(O)C(O)C2O)N(C)C1 (stereo not given) = < 0.06 µM (active)

====

Target: Eukaryotic translation initiation factor 2-alpha kinase 3 (Homo sapiens)
Sequence (Q9NZJ5 whole entry): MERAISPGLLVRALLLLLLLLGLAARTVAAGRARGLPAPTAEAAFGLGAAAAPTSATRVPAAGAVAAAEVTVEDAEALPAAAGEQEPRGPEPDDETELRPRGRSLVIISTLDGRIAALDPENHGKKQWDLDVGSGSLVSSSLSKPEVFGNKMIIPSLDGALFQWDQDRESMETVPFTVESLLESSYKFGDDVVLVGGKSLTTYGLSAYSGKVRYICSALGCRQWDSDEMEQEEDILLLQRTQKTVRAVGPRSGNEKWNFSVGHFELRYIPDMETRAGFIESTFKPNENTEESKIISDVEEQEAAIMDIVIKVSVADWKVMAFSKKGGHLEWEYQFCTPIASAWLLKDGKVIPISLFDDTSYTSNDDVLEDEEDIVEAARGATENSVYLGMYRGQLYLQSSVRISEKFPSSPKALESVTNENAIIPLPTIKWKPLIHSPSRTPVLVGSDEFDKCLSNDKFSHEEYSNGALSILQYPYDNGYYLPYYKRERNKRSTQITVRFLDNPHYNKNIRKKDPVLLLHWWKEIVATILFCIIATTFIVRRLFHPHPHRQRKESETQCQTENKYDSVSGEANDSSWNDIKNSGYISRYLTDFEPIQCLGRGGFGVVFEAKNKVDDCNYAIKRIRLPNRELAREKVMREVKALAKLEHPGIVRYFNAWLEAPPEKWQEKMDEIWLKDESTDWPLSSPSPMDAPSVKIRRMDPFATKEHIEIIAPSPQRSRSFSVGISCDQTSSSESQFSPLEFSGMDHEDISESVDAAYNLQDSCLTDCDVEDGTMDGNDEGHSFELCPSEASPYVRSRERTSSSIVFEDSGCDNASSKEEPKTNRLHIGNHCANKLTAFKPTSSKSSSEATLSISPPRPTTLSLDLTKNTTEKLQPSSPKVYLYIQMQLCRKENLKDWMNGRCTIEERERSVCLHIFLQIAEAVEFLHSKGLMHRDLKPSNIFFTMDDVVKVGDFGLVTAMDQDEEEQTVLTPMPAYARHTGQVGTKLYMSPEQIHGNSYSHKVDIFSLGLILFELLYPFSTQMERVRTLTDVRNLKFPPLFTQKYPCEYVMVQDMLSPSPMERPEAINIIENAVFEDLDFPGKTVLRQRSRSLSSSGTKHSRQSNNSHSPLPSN
Assay: Dose response cell-based high-throughput screening assay to measure PERK inhibition. [Related pubchem assays: 1416 ]
Assay type: functional
assay readout: EC50

1. Cn1cc([N+](=O)[O-])c(C(=O)NCc2ccco2)n1 = > 55.7 µM (not active)
2. Cc1nnc(O)nc1NCCN(C)C = > 55.7 µM (not active)
3. O=[N+]([O-])c1ccc(C2NS(=O)(=O)N=C3CCCCCN32)cc1 (stereo unspecified) = > 55.7 µM (not active)
4. CN1N=C(C(C)(C)C)CC1=O = > 55.7 µM (not active)
5. O=C(CN1C(=O)COc2ccc(S(=O)(=O)N3CCOCC3)cc21)NCc1ccccn1 = > 55.7 µM (not active)
6. CCOc1cc(C2NC(S)=NC(C)=C2C(=O)Nc2ccc(OC)cc2)ccc1O (stereo unspecified) = > 55.7 µM (not active)

====

Target: Heat shock factor protein 1 (Mus musculus)
Sequence (P38532 whole entry): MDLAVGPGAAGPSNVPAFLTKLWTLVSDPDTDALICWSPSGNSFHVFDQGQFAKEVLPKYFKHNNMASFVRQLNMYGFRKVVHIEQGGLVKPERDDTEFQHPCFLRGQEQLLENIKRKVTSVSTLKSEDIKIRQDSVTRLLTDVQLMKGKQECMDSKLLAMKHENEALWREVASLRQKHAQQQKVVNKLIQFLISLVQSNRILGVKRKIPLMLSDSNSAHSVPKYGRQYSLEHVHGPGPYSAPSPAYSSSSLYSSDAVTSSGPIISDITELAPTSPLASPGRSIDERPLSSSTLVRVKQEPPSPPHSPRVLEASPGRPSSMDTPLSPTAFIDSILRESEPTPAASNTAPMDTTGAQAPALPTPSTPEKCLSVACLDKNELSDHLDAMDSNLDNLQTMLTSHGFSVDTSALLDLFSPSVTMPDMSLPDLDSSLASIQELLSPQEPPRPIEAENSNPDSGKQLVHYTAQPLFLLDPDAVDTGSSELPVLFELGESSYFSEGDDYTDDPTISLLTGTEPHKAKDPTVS
Test: HSF1 potentiators in luciferase reporter cells, confirmation, cell-based, NIH3T3, luminescence, dose retest (AID 435004);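 also: stress induced by proteasome inhibitor MG132 added 30 min after compound; luciferase reporter driven by HSF1 response element in NIH3T3 cells; actives raise luminescence as potentiators of the MG132 stress response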
Format: functional
The source made the active and inactive calls.
Outcomes: yes for active, no for inactive

1. O=S(=O)(c1cc(Cl)ccc1Cl)N1CC2CCCN2c2ccc(C(F)(F)F)cc21 (configuration not stated) = no
2. CC1=CC(=O)C(C(C)C)=C/C1=N/OS(=O)(=O)c1ccccc1 = yes
3. Cc1ccc(N(CCCCN2C(=O)c3ccccc3C2=O)C(=O)c2cccc([N+](=O)[O-])c2)cc1 = yes
4. CCOC(=S)SCC(=O)N1CCc2cc(OC)c(OC)cc2C1C1C(=O)CC(C)(C)CC1=O (configuration not stated) = no
5. CCc1ccc(N(C(=O)c2snc(C(N)=O)c2N)C(C(=O)NCCC(C)C)c2c[nH]c3ccccc23)cc1 (configuration not stated) = yes
6. COc1ccc(/N=C2/C(=N\c3ccc(OC)cc3)N(c3ccc(OC)cc3)C(=S)N2C(=O)c2ccc(OC)cc2)cc1 = no
7. COc1ccccc1NS(=O)(=O)c1cc(C(=O)N2CC(C)CC(C)C2)ccc1C (configuration not stated) = no
8. COc1ccc(C(=O)NC2CCN(C(S)=NCc3ccco3)CC2)cc1 = no
9. Cc1csc2nc(CCNS(=O)(=O)c3cccs3)cn12 = yes
10. CCOC(=O)C(C)Oc1cc(Cl)c(C=O)cc1OC (configuration not stated) = no
11. O=C(NCCc1ccc(O)c(O)c1)C1COc2ccccc2O1 (configuration not stated) = yes
12. COC(=O)c1cn(NC(=O)C2CCC(C)CC2)c(=O)c2ccccc12 (configuration not stated) = no

====

# AC50 per entry
Biological target: Trypsin (Sus scrofa)
Sequence (P00761 whole entry): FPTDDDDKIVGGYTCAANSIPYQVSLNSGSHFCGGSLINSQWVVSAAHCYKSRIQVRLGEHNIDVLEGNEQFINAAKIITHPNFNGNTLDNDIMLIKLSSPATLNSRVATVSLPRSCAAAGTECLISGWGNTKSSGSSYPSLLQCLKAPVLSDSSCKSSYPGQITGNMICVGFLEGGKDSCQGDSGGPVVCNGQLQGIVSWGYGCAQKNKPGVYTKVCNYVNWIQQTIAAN
Test: porcine trypsin inhibitors, dose response, selectivity assay for Rce1 protease inhibitor project, biochemical, quenched peptide fluorescence, cherry-pick (AID 488789)
Active and inactive are the calls of the source.
assay readout: AC50

1) Nc1ccccc1Oc1ccc2ccccc2c1 = 6.89 µM (active)
2) CCC(C)NC(=O)c1cc2c(=O)n3cccc(C)c3nc2s1 (centres undefined) = 28.5 µM (active)
3) Oc1ccc(-c2nc3ccccn3c2NCc2ccco2)cc1 = 10.8 µM (active)
4) O=C1C(Cc2c[nH]c3ccccc23)NC(=S)N1Cc1ccccc1 (centres undefined) = 14.3 µM (active)
